- System: T1, CD27 protein (His-tagged, Sino Biological Inc. 10039-H08B1) (human, UniProt P26842 20-192)
- T1 construct: bought protein coated on ELISA plates; also called TNFRSF7; not shown: His tag
- T1 sequence (looked up): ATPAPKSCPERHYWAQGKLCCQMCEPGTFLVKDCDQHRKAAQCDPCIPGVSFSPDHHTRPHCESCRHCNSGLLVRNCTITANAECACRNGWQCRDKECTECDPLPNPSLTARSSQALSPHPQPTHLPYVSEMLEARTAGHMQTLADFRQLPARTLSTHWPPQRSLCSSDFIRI
- Protocol Details: ELISA, coated His-tagged CD27; also: test concentration or dose not given here
Value Kind: ELISA [abs. corr.] (abs. corr.)

1. P018.S.05.A.B06 (antibody, V domains shown, V regions on human Ig constant parts; also called AB27_84) VH: QSVEESGGRLVTPGTPLTLTCTVSGFSLNTYVMSWVRQAPGKGLEWIGYIDYGGAPYYASWAKGRFTISKTSTTVELKITSPTIEDTATYFCARGGYGGYVLVTVLWGPGTLVTVSS VL: DVVMTQTPASVSEPVGGTVTIKCQASQNIYSSLAWYQQKPGQPPKLLIYQASTLASEVPSRFKGSGSGTEFTLTINDLESADAATYYCQTYYGGSTYGNGFGGGTEVVVE :: 3.1
2. P018.S.09.A.F06 (antibody, V domains shown, V regions on human Ig constant parts; also called AB27_158) VH: QSVEESGGRLVTPGGSLTLTCSVSGIDLSSYAMNWVRQAPGKGLEWIGIISTGGSTYYANWAKGRFTISKTSTTVDLKITSPTTEDTATYICARDVGGTTVPYYFDLWGPGTLVTVSS VL: AYDMTQTPASMEVAVGGTVTIKCQASESISSWLAWYQQKPGQPPKPLIYEASRLASGVPSRFKGSGSGTEFTLTISGVESADAATYYCQQGYGSSDVHNIFGGGTEVVVK :: 2.98
3. P018.S.03.A.G05 (antibody, V domains shown, V regions on human Ig constant parts; also called AB27_58) VH: QSLEESGGDLVKPEGSLTLTCTASGFSFSSGGWICWVRQAPGRGLEWIACIYVGSSGTTHYASWAKGRFTISKTSSTTVTLQMTSLTAADTATYFCARGAVYGGGSYDNFHLWGPGTLVTVSS VL: AYDMTQTPASVSEPVGGTVTIKCQASQSIGSYLSWYQQKPGQRPKLLIYAASTLASGVQSRFKGSGSGTDYTLTISGVQSDDAATYYCQQGYNISNLDNTFGGGTEVVVK :: 2.98
4. P018.S.09.A.C02 (antibody, V domains shown, V regions on human Ig constant parts; also called AB27_147) VH: QSVEESGGRLVTPGTPLTLTCTVSGIDLSSYVMSWVRQAPGKGLEWIGYIDYGGTAYYASWAKGRFTISKTSTTVELKITSPTIEDTATYFCARGGYGGYTLVTALWGPGTLVTVSS VL: DIVMTQTPASVSEPVGGTVTIKCQASQSISSYLSWYQQKPGQPPKLLIYSTSTLASGVSSRFKGSGSGTEYTLTISDLESADAATYYCQTYYGGGPFGNGFGGGTEVVVK :: 2.94
5. P018.S.10.A.A03 (antibody, V domains shown, V regions on human Ig constant parts; also called AB27_163) VH: QSLEESGGRLVTPGTPLTLTCTVSGIDLSSYAMGWVRQAPGKGLEWIGTISTISNTYYASWANGRFTISKTSTTVDLKMTSLTASDTATYFCARGASNTINDYFNLWGQGTLVTVSS VL: DIVMTQTPASVSEPVGGTVTIKCQASQSVGNYLAWYQQKPGQPPKLLIYDASNLASGVSSRFKGSGFATEFILTISDLESTDAATYYCHSYVYSSGNVYNGFGGGTEVVVK :: 2.81

These entries and their values trace back to patent US20210253725A1.
